Test system: SNB-19 CNS
Test details: NCI-60 one-dose screen, 48 h (100 = growth as untreated, 0 = no growth, -100 = all killed)
Test conditions: 10 µM unless noted
The panel holds about 83,000 compounds, 20% with a hit somewhere; the sample as a whole holds those more often.
List of growth values.

# Compound, growth, %
records = [
    ("Fc1ccccc1/C=C(/C1=NCCN1)n1cnc2ccccc21", 97.6),
    ("Cc1ccc(NC(=O)N[C@@H](Cc2cc(F)cc(F)c2)C(=O)NC2C(=O)N3CCC[C@H]3C(=O)N3CCCC[C@H]3C(=O)N[C@@H](C)C(=O)N3C[C@H](C)C[C@H]3C(=O)O[C@H]2C)c(F)c1 (stereo partly drawn)", 26.3),
    ("Nc1nc(-c2cccc([N+](=O)[O-])c2)c(N=Nc2cccc(Cl)c2)s1", 73.9),
    ("CN(c1ccc(Br)cc1)S(=O)(=O)c1ccc(-c2cnc(C3CC3)o2)cc1", 37.3),
    ("CCOC(=O)Nc1cccc(-n2cnc3cc(-c4ccc(O)cc4)ccc32)c1", 27.1),
    ("O=C(NCCNc1cc(-c2cn(-c3ccccc3)nc2-c2cccc(O)c2)ccn1)Nc1ccc(Cl)c(C(F)(F)F)c1", 46.8),
    ("COc1ccc(-c2nn(-c3ccccc3)cc2/C=C/C(=O)c2ccc(NC(=O)CCCCCCC(=O)NO)cc2)cc1", 106),
    ("CNC(=O)c1cc(N2CCc3cc(NC(=O)Nc4ccc(Cl)c(Cl)c4)ccc32)ccn1", 81.4),
]

###

Tested on: COLO 205 colon
Test details: NCI-60 one-dose screen, 48 h
Test conditions: 10 µM unless noted
This is part of a sample that, as a whole, favours compounds with a hit. Of some 83,000 tested, about 20% had one in any assay. Active and inactive are the calls of the source. The calls were made as follows: active = growth percent below 10; inactive = the rest.
Classes used: yes (active), no (inactive)

# Molecule, Answer label
data = [
    ("CC(c1ccccc1)N1C(=O)/C(=C/c2csc(C#N)n2)SC1=S (stereo not given)", "no"),
    ("O=c1cc(-c2ccccc2)nc2sc(-c3c[nH]c4ccc(F)cc34)nn12", "no"),
    ("COc1ccc(NC(=O)[C@H](C)NC(=O)OC(C)(C)C)cc1C(=O)Nc1cccc(-c2cc(=O)c3c(OC)c(OC)c(OC)cc3o2)c1", "yes"),
    ("CN1CCN(c2ccc(C(=O)Nc3cccc(-c4cn(-c5ccc(S(N)(=O)=O)cc5)nn4)c3)cc2C(F)(F)F)CC1", "no"),
    ("COc1ccc(S(=O)(=O)NCCCNc2nccc(-n3cnc4ccccc43)n2)cc1", "no"),
]

###

System: OVCAR-5 ovarian
Test details: NCI-60 one-dose screen, 48 h (100 = growth as untreated, 0 = no growth, -100 = all killed)
Test conditions: 10 µM unless noted
This is part of a sample that, as a whole, favours compounds with a hit. Of some 83,000 tested, about 20% had one in any assay.
List of growth values.

# Compound, Unit name, growth
records = [
    ("O=C(O)CNS(=O)(=O)c1ccc(Oc2ccc(S(=O)(=O)NCC(=O)O)cc2)cc1", "%", 101),
    ("Oc1ccc(CSc2nnc(-c3ccc(Oc4ccccc4)cc3)n2-c2ccccc2)c2cccnc12", "%", 42.7),
    ("Nc1nc(-c2cccc([N+](=O)[O-])c2)c(N=Nc2cccc(Cl)c2)s1", "%", 64.3),
    ("COc1cc(/C=N/n2cnc3oc(-c4ccccc4)cc3c2=N)cc(CN2CCCCC2)c1O", "%", -81),
    ("O=C1CSC(=O)N1Cc1cc2ccccc2nc1Cl", "%", 101),
    ("CCN1C(=O)N(CC)C2SC(N/N=C/c3cccs3)=NC21 (centres undefined)", "%", 43.6),
    ("O=C(CCCCCCN1CC(=O)N2[C@@H](c3cc(F)cc(F)c3)c3[nH]c4ccccc4c3C[C@H]2C1=O)NO", "%", 66.4),
    ("IP(CCCSc1n(Cc2ccc3ccccc3c2)c(-c2ccccc2)c(-c2ccccc2)[n+]1Cc1ccc2ccccc2c1)(c1ccccc1)(c1ccccc1)c1ccccc1", "%", 58.5),
    ("O=C1C[C@@H](c2ccccc2)Oc2c(Cc3ccccc3O)c(O)c(Cc3cc(Cc4cc(Cc5ccccc5O)ccc4O)ccc3O)c(O)c21", "%", 107),
]

###

Tested on: CAKI-1 renal
Test details: NCI-60 one-dose screen, 48 h (100 = growth as untreated, 0 = no growth, -100 = all killed)
Test conditions: 10 µM
Experimental: Growth inhibition of the CAKI-1 human tumor cell line is measured as a screen for anti-cancer activity. Cells are grown in 96 well plates and exposed to the test compound for 48 hours. Compounds are tested at a single concentration, which is 10^-5 M for most compounds. The reported endpoint is percent growth (GI% or GIPRCNT), where numbers from 0 - 100% represent growth inhibition, and numbers from -100% - 0 represent cell death. For example, a value of 40 represents 60% growth inhibition. […]
This is part of a sample that, as a whole, favours compounds with a hit. Of some 83,000 tested, about 20% had one in any assay.
Category key, based on recorded growth: low class (below 30%), middle class (30% to below 80%), high class (80% or more)

# Compound, Answer label
measured = [
    ("Cc1ccc(Cc2cnc(NC(=O)/C(C#N)=C/c3ccc(-c4ccc(Cl)cc4)o3)s2)cc1", "high class"),
    ("CCN1C(=O)N(CC)C2SC(N/N=C/c3cccs3)=NC21 (centres undefined)", "low class"),
    ("CSc1nccc(-c2c(-c3ccc(F)c(OCc4ccc(F)cc4)c3)nc3sccn23)n1", "middle class"),
    ("O=C(CCCCCCN1CC(=O)N2[C@@H](c3ccc(Cl)c(F)c3)c3[nH]c4ccccc4c3C[C@H]2C1=O)NO", "middle class"),
    ("Cc1ccc(S(=O)(=O)N/N=C/c2cn(-c3ccc(F)cc3)nc2-c2ccc(S(C)(=O)=O)cc2)cc1", "high class"),
    ("CCNCCCn1c2c(c3cc(OC)c(OC)cc3c1=O)C(=O)c1cc(OC)cnc1-2", "low class"),
    ("COc1ccc([C@@H]2[C@@H](O)C(=O)N2c2cc(OC)c(OC)c(OC)c2)cc1", "low class"),
    ("N#Cc1c(-c2cccs2)cc(-c2cnccn2)nc1SCC(=O)NNC(=S)Nc1ccc(F)cc1", "high class"),
    ("Nc1nc(-c2cccc([N+](=O)[O-])c2)c(N=Nc2cccc(Cl)c2)s1", "low class"),
]

###

System: SF-268 CNS
Test details: NCI-60 one-dose screen, 48 h (100 = growth as untreated, 0 = no growth, -100 = all killed)
Test conditions: 10 µM unless noted
The panel holds about 83,000 compounds, 20% with a hit somewhere; the sample as a whole holds those more often.
Quick rule for you: growth at 60% or higher means met, lower means not met.

# Structure string, Test system, Answer label
measured = [
    ("O=C1[C@H]2Cc3c([nH]c4ccccc34)[C@H](c3ccc(Cl)cc3)N2C(=O)CN1C1CCN(Cc2c(Cl)cccc2Cl)CC1", "SF-268 CNS", "met"),
    ("CC(C)(C)OC(=O)N1CCN(S(=O)(=O)/N=C2\\NC(=O)NC2=C(Cl)Cl)CC1", "SF-268 CNS", "met"),
    ("O=C(NNc1nc2cc(F)c(F)cc2n2cccc12)c1ncccn1", "SF-268 CNS", "not met"),
    ("O=C1c2cc(Br)ccc2-n2c1nc1cc(Br)ccc1c2=O", "SF-268 CNS", "met"),
    ("O=C(O)c1ccc(-n2cc(CNc3ccc(F)cc3)c(-c3ccc(C(F)(F)F)cc3)n2)cc1", "SF-268 CNS", "met"),
]

###

Tested on: M14 melanoma
Test details: NCI-60 one-dose screen, 48 h
Test conditions: 10 µM unless noted
Experimental: Growth inhibition of the M14 human tumor cell line is measured as a screen for anti-cancer activity. Cells are grown in 96 well plates and exposed to the test compound for 48 hours. Compounds are tested at a single concentration, which is 10^-5 M for most compounds. The reported endpoint is percent growth (GI% or GIPRCNT), where numbers from 0 - 100% represent growth inhibition, and numbers from -100% - 0 represent cell death. For example, a value of 40 represents 60% growth inhibition. […]
This is part of a sample that, as a whole, favours compounds with a hit. Of some 83,000 tested, about 20% had one in any assay. Active and inactive are the calls of the source. Rule for the calls: active = growth percent below 10; inactive = the rest.
Classes used: active, inactive

# Molecule, Answer label
measured = [
    ("N#Cc1c(NC(=O)c2ccc(F)c(Cl)c2)sc2c1CCC(=O)C2", "active"),
    ("C=C(C)[C@@H]1CC[C@]2(C)[C@H](CC=C3[C@@H]4CC(C)(C)CC[C@]4(C(=O)NCC#CCN4CCN(C)CC4)CC[C@]32C)[C@@]1(C)CCC#N", "active"),
    ("C/C(=C(/C)C1CC1CCN(C(=O)c1ccccn1)S(=O)(=O)c1ccc(C)cc1)C1CCCCC1 (configuration not stated)", "inactive"),
    ("COc1ccc(NC2=C(Cl)C(=O)C(C)=C(C)C2=O)cc1", "inactive"),
    ("N#Cc1c(-c2ccccc2)cc(-c2c[nH]c3ccccc23)nc1-c1c[nH]c2ccccc12", "inactive"),
    ("COc1ccc2oc3c4[nH]c5ccccc5c4c4c(c3c2c1)C(=O)N(O)C4=O", "inactive"),
    ("Cc1ccc(C2CC(c3ccc(Nc4nc(NCCO)nc(Nc5ccc(Cl)cc5)n4)cc3)=Nc3c(N)nc(N)nc3N2)cc1 (configuration not stated)", "active"),
    ("CCNC(=O)Oc1ccc(/C(=C(/C)c2ccc(Cl)cc2)c2ccc(OCCN(C)C)cc2)cc1", "inactive"),
    ("COc1cccc(/C=C/C(=O)c2ccc(NC(=O)COc3cccc4cccnc34)cc2)c1", "inactive"),
    ("COc1cc(CNC(=O)Cc2ccccc2[N+](=O)[O-])ccc1OCC(=O)NO", "inactive"),
    ("O=C(CCCCCCN1CC(=O)N2[C@@H](c3ccccc3)c3[nH]c4ccccc4c3C[C@H]2C1=O)NO", "inactive"),
    ("O=C1c2c(c3c4cc(Br)ccc4[nH]c3c3ccc4ccccc4c23)C(=O)N1CCN1CCNCC1", "inactive"),
    ("O=C(NNc1nc2cc(F)cc(F)c2n2cccc12)c1ccncn1", "active"),
    ("Cc1cccc(NC(c2cc3cccc4ccc5cccc2c5c43)c2nnnn2C(C)(C)C)c1C (configuration not stated)", "inactive"),
    ("COc1cc(/C=N/n2cnc3oc(-c4ccccc4)cc3c2=N)cc(CN2CCOCC2)c1O", "inactive"),
    ("C#C[C@]1(O)CC[C@H]2[C@@H]3CC=C4c5sc(Nc6cccc(C)n6)nc5CC[C@]4(C)[C@H]3CC[C@@]21C", "active"),
    ("CCN1C(=O)N(CC)C2SC(N/N=C/c3ccc(OC)cc3)=NC21 (configuration not stated)", "active"),
    ("C=C(C)C(=O)O[C@H]1C[C@@]2(C)OC(=CC2=O)[C@H](C)[C@H](O)[C@H]2OC(=O)C(=C)[C@@H]21", "inactive"),
    ("COc1cc(-c2nc(SCc3ccc(C)cc3)[nH]c(=O)c2C#N)ccc1OCc1ccccc1", "inactive"),
    ("O=C(Nc1ccc(-c2nc(-c3cccc(O)c3)c(-c3ccnc(Br)c3)[nH]2)cc1)c1ccccc1", "inactive"),
    ("O=C(/C=C1\\C=CN(CCCCCCF)c2ccccc21)n1ccc2ccccc21", "inactive"),
    ("O=C(NNc1nc2cc(F)cc(F)c2n2cccc12)c1ncccn1", "active"),
    ("CS(=O)(=O)c1ccc2c(c1)c1c(n2Cc2ccc(Cl)cc2)CCCC1", "inactive"),
    ("C/C(=C(/c1ccc(O)cc1)c1ccc(OCCN2CCCC2)cc1)c1ccc(Cl)cc1", "active"),
    ("CCCCCc1ccc(S(=O)(=O)N(C(C)=O)c2cccc(-c3csc(N(CCN4CCN(C)CC4)C(C)=O)n3)c2)cc1", "active"),
    ("C#C[C@]1(O)CC[C@H]2[C@@H]3CC=C4c5sc(-c6cccc(F)c6)nc5CC[C@]4(C)[C@H]3CC[C@@]21C", "inactive"),
    ("COc1ccc(CN2C(=O)/C(=C/c3nc(CO)cs3)SC2=S)cc1", "inactive"),
    ("C(=C(\\C1=NCCN1)n1cnc2ccccc21)/c1ccc2ccccc2c1", "inactive"),
    ("Oc1ccc(-c2nnc(SCc3ccc(O)c4ncccc34)o2)cc1", "active"),
    ("C=CCn1c(SCC(=O)Nc2cccc(C(=O)/C=C/c3ccccc3Cl)c2)nc2ccccc2c1=O", "inactive"),
    ("COC[C@]12CC[C@@H](C)[C@H](C)[C@H]1C1=CC[C@@H]3[C@@]4(C)CCCNC(C)(C)[C@@H]4CC[C@@]3(C)[C@]1(C)CC2", "active"),
    ("Cc1cc(F)cc(NS(=O)(=O)c2ccc(-c3cnc(C4CC4)o3)cc2)c1", "inactive"),
    ("COc1ccc2c(c1)c(-c1nn3c(=O)cc(-c4ccccc4)nc3s1)cn2C", "inactive"),
    ("COc1cc(O)c2c(c1)[C@H]1O[C@@H]1C[C@H](O)[C@H](O)C(=O)/C=C\\C[C@H](C)OC2=O", "active"),
    ("CNC(=O)c1c(NC(=O)c2ccc(F)cc2F)sc2c1CCC(=O)C2", "inactive"),
    ("CCCCCCNC(=O)Oc1ccc(/C(=C(/C)c2ccc(OC)cc2)c2ccc(OCCN3CCCC3)cc2)cc1", "active"),
    ("COc1ccc(-c2nnc(/N=C3/C(=O)Nc4ccc(Br)cc43)o2)cc1", "inactive"),
]
